Tested on: Setaria viridis
Test: Post-emergence herbicidal action, SETVI
Format: in vivo
Parameters: key: % herbicidal action vs untreated; 100 = plants died, 0 = like control
Conditions: Dosage 80 g/ha
// reported herbicidal action SETVI for each item listed
The response must contain the number and no unit.

Solved cases below.
CCCn1nnnc1NC(=O)c1ccc(C(F)(F)F)c(C[S+](C)[O-])c1OC (stereo not drawn)
100
CCCn1nnnc1NC(=O)c1ccc(C(F)(F)F)c(CSC)c1OC
100
Cn1nnnc1NC(=O)c1ccc(C(F)(F)F)c(CSCC(F)(F)F)c1Cl
100
COCC[S+]([O-])Cc1c(C(F)(F)F)ccc(C(=O)Nc2nnnn2C)c1Cl (racemic)
90

Incoming: Report herbicidal action SETVI for CCn1nnnc1NC(=O)c1ccc(C)c(CSC)c1Cl tested on Setaria viridis.
Outgoing: 90
